Consider the following compounds and their measured Absolute DNA transfection efficiency in HEK293 cells readings.
system: HEK293 cells; experiment: Preliminary screening as DNA vectors, GFP transfection of HEK293 cells; format: cell-based; conditions: HEK293 cells; lipid/DOPE liposome with 75 ng plasmid DNA (psin-EGFP-IRES-Puro); number of cells expressing GFP divided by total number of nuclei (Hoechst)
Give the value in % but do not write % after it.

// below: answered compounds
Input: Give its Absolute DNA transfection efficiency in HEK293 cells value. Item: CCCCCCCCCCCNc1nc(NCCCCCCCC)nc(NCCCN(C)C)n1 [Compound N8N11D6]
Output: 0.3

Input: Please answer likewise for CCCCCCCCCCCCCCCCSc1nc(NCCCN2CCOCC2)nc(SCCCCCCCCCC)n1 [Compound S10S16D8]
Output: 15.7

Input: Please answer likewise for CCCCCCCCCCCCNc1nc(NCCCCCCCCC)nc(NCCN2CCCCC2)n1 [Compound N9N12D4]
Output: 0.0

More entries:
Input: Give its Absolute DNA transfection efficiency in HEK293 cells value. Item: CCCCCCCCCCCCCCSc1nc(NCCN(CC)CC)nc(SCCCCCCCCC)n1 [Compound S9S14D7]
Output: 12.5

Input: Please answer likewise for CCCCCCCCCCCCCCCSc1nc(NCCN2CCN(C)CC2)nc(SCCCCCCCCCCC)n1 [Compound S11S15D5]
Output: 4.8

Input: Please answer likewise for CCCCCCCCCCCCCCCCNc1nc(NCCCCCCCCCCCCC)nc(NCCN2CCCCC2)n1 [Compound N13N16D4]
Output: 1.0

Input: Please answer likewise for CCCCCCCCCCCCCCCCNc1nc(NCCCCCC)nc(NCCCN2CCOCC2)n1 [Compound N6N16D8]
Output: 0.6

Input: Please answer likewise for CCCCCCCCCCCCCCCSc1nc(NCCCN2CCN(C)CC2)nc(SCCCCCCCCCC)n1 [Compound S10S15D9]
Output: 3.9

* * *

system: HEK293 cells; assay: Preliminary screening as DNA vectors, GFP transfection of HEK293 cells; assay type: cell-based; conditions: amino lipid/DOPE liposome with 75 ng plasmid DNA (psin-EGFP-IRES-Puro); number of GFP-expressing cells divided by total nuclei (Hoechst)
met if Absolute DNA transfection efficiency in HEK293 cells is below 8%. not met if not; exact matches included in not met.

Example cases with answers are listed next.
Input: Consider the compound `CCCCCCCCCCCCCCCCCCSc1nc(NCCCCCC)nc(NCCN(CC)CC)n1` . Is its Absolute DNA transfection efficiency in HEK293 cells strictly less than 8%?
Output: not met

Input: Please answer likewise for `CCCCCCCCCCCNc1nc(NCCN2CCCC2)nc(SCCCCCCCCCCC)n1`
Output: not met

Input: Please answer likewise for `CCCCCCCCCCCCCCSc1nc(NCCCCCC)nc(NCCN2CCCCC2)n1`
Output: met

Input: Please answer likewise for CCCCCCCCCCCCCNc1nc(NCCN2CCOCC2)nc(SCCCCCCCCC)n1 [S9N13 D2]
Output: not met

Input: Please answer likewise for `CCCCCCCCCCCCCCSc1nc(NCCCCCCCCCCC)nc(NCCCN2CCOCC2)n1`
Output: met

More entries:
Input: Consider the compound `CCCCCCCCCCCCCCCCCCNc1nc(NCCCN2CCOCC2)nc(SCCCCCCCCC)n1` . Is its Absolute DNA transfection efficiency in HEK293 cells strictly less than 8%?
Output: not met

Input: Please answer likewise for `CCCCCCCCCSc1nc(NCCCCCCC)nc(NCCCN2CCOCC2)n1`
Output: met
